Biological target: T1, wild-type CNTFR-Fc (human, UniProt P26992 23-342)
T1 construct: also called wtCNTFR-Fc; not shown: Fc domain; captured with anti-mouse Fc antibody
T1 sequence: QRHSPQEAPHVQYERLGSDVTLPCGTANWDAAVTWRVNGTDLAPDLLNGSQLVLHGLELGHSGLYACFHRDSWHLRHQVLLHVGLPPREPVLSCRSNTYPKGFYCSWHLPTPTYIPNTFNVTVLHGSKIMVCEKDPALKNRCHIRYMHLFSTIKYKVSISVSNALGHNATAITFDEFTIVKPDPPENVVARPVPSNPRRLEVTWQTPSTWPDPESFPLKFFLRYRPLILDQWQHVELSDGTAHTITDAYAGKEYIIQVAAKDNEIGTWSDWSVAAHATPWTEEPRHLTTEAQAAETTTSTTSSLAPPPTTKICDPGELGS
Test: sandwich ELISA, soluble CLCF1 titrated against 2 nM CNTFR-Fc, apparent Kd
pKd: −log10 of the molar value.
Recorded pKd values for a group of binders are listed next.

- binder: "v1 (ligand) soluble CLCF1 variant: LNRTGDPGPGPSIQKTYDLTRYLEHQLRSLAGTYLNYLGPPFNEPDFNPPRLGAETLPRATVDLEVWRSLNDKLRLTQNYEAYSHLLCYLRGLNRRAATAELRRSLAHFCTSLQGLLGSIAGVMAALGYPLPQPLPGTEPTWTPGPAHSDFLQKMDDFWLLKELQTWLWRSAKDFNRLKKKMQPPAAAVTLHLGAHGF"
  pKd: 8.18
- binder: "v3 (ligand) soluble CLCF1 variant: LNRTGDPGPGPSIQKTYDLTRYLEHQLRSLAGTYLNYLGPPFNEPDFNPPRLGAETLPRATVDLEVWRSLNDKLRLTQNYEAYSHLLCYLRGLNRRAATAELRRSLAHFCTSLQGLLGSIAGVMAALGYPLPQPLPGTEPTWTPGPARSDFLQKMDDFWLLKELQTWLWRSAKDFNRLKKKMQPPAAAVTLHLGAHGF"
  pKd: 8.60
- binder: "recombinant soluble FRR-CLCF1 (L86F, Q96R, H148R) (ligand, Expressed in E. coli from pET28b) LNRTGDPGPGPSIQKTYDLTRYLEHQLRSLAGTYLNYLGPPFNEPDFNPPRLGAETLPRATVDLEVWRSLNDKLRLTQNYEAYSHFLCYLRGLNRRAATAELRRSLAHFCTSLQGLLGSIAGVMAALGYPLPQPLPGTEPTWTPGPARSDFLQKMDDFWLLKELQTWLWRSAKDFNRLKKKMQPPAAAVTLHLGAHGF"
  pKd: 9.07
- binder: "v2 (ligand) soluble CLCF1 variant: LNRTGDPGPGPSIQKTYDLTRYLEHQLRSLAGTYLNYLGPPFNEPDFNPPRLGAETLPRATVDLEVWRSLNDKLRLTQNYEAYSHFLCYLRGLNRRAATAELRRSLAHFCTSLQGLLGSIAGVMAALGYPLPQPLPGTEPTWTPGPAHSDFLQKMDDFWLLKELQTWLWRSAKDFNRLKKKMQPPAAAVTLHLGAHGF"
  pKd: 8.64
